Provenance of the data: patent US20100105680A1

target: sigma-1 receptor (Cavia porcellus, UniProt Q60492); construct: guinea pig brains were homogenized; from tissue; host or cells: guinea pig brain membranes; test: Sigma-1 receptor binding ([3H]-(+)-pentazocine, brain membranes); details: compound concentration 0.0100 μM; [3H]-(+)-pentazocine 0.5 nM; guinea pig brain membranes; read-out: Percent Inhibition Percent Concentration (μM) 0.0100 SIGMA-1 receptor
Sequence (Q60492 whole entry): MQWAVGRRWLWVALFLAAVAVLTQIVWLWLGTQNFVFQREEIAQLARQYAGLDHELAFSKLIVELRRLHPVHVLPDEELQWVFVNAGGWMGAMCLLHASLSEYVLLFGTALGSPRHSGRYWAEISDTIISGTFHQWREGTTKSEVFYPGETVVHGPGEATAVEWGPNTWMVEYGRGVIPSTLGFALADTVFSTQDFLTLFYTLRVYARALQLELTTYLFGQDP
Reported inhibition at 0.01 µM values for a set of compounds

{"COMPOUND": "CC(O)[C@@H]1C[C@H](CCN2CCCCC2)C1(C)C (some centres unmarked)", "UNITS_LABEL": "%", "inhibition at 0.01 µM": 5.5}
{"COMPOUND": "CC1(C)[C@@H](CCOCc2ccccc2)C[C@H]1CN1CCN(c2ccccc2)CC1", "UNITS_LABEL": "%", "inhibition at 0.01 µM": 65.8}
{"COMPOUND": "CC1(C)[C@@H](CCOCc2ccccc2)C[C@H]1CN1CCCCC1", "UNITS_LABEL": "%", "inhibition at 0.01 µM": 96.5}
{"COMPOUND": "CC1(C)[C@@H](CCN2CCc3ccccc3C2)C[C@H]1CN1CCOCC1", "UNITS_LABEL": "%", "inhibition at 0.01 µM": 36.8}
{"COMPOUND": "CC1(C)[C@@H](CCOCc2ccccc2)C[C@H]1CN1CCOCC1", "UNITS_LABEL": "%", "inhibition at 0.01 µM": 89.9}
{"COMPOUND": "CN1CCN(C[C@H]2C[C@@H](CCOCc3ccccc3)C2(C)C)CC1", "UNITS_LABEL": "%", "inhibition at 0.01 µM": 42.5}
{"COMPOUND": "CC1(C)[C@@H](CCOCc2ccccc2)C[C@H]1CN1CCCC1", "UNITS_LABEL": "%", "inhibition at 0.01 µM": 85.3}
{"COMPOUND": "CC1(C)[C@@H](CCn2cncn2)C[C@H]1CN1CCOCC1", "UNITS_LABEL": "%", "inhibition at 0.01 µM": 10.3}

----------
Molecular target: sigma-1 receptor (Cavia porcellus, UniProt Q60492)
Construct: guinea pig brains were homogenized; from tissue; host or cells: guinea pig brain membranes
Assay: Sigma-1 receptor binding ([3H]-(+)-pentazocine, brain membranes)
Conditions: [3H]-(+)-pentazocine 0.5 nM; guinea pig brain membranes
Protocol: Brain membrane preparation and binding assays for the sigma-1 receptor were performed as described (DeHaven-Hudkins et al., Characterization of the binding of [^3H]-(+)-pentazocine to recognition sites in guinea pig brain, Eur. J. Pharmacol. 227, 371-378) with some modifications. In brief, guinea pig brains were homogenized in 10 vols. (w/v) of Tris-HCl 50 mM, 0.32 M sucrose, pH 7.4, with a Kinematica Polytron PT 3000 at 15000 r.p.m. for 30 s. […]

{"COMPOUND": "CN1CCN(C[C@@H]2C[C@H](CCOCc3ccccc3)C2(C)C)CC1.O=C(O)C(=O)O", "Ki [nM]": 5.3}
{"COMPOUND": "CN(Cc1ccccc1)CC1CC(CCO)C1(C)C (stereo not shown)", "Ki [nM]": 3.3}
{"COMPOUND": "CC1(C)[C@@H](CCOCc2ccccc2)C[C@H]1CN1CCOCC1", "Ki [nM]": 1.7}
{"COMPOUND": "CC1(C)[C@@H](CCOCc2ccccc2)C[C@H]1CN1CCN(c2ccccc2)CC1.O=C(O)C(=O)O", "Ki [nM]": 33.5}
{"COMPOUND": "CC1(C)[C@@H](CCOCc2ccccc2)C[C@H]1CN1CCCC1", "Ki [nM]": 0.6}
{"COMPOUND": "CC1(C)[C@@H](CCO)C[C@H]1CN1CCCCC1", "Ki [nM]": 41.8}
{"COMPOUND": "CC1(C)[C@H](CCOCc2ccccc2)C[C@@H]1CN1CCCCC1", "Ki [nM]": 1.5}
{"COMPOUND": "CC1(C)[C@@H](CCN2CCc3ccccc3C2)C[C@H]1CN1CCCCC1", "Ki [nM]": 11.7}
{"COMPOUND": "CC1(C)[C@@H](CCOCc2ccccc2)C[C@H]1CN1CCN(c2ccccc2)CC1", "Ki [nM]": 47}
{"COMPOUND": "CC1(C)[C@@H](COCc2ccccc2)C[C@H]1CN1CCN(c2ccccc2)CC1", "Ki [nM]": 14.6}
{"COMPOUND": "CC(O)(c1ccccc1)[C@@H]1C[C@H](CCN2CCCCC2)C1(C)C (stereo partly shown)", "Ki [nM]": 1.9}
{"COMPOUND": "CC1CCN(C[C@@H]2C[C@H](CCOCc3ccccc3)C2(C)C)CC1", "Ki [nM]": 5}
{"COMPOUND": "C[C@@H]1CN(C[C@@H]2C[C@H](CCOCc3ccccc3)C2(C)C)C[C@H](C)O1", "Ki [nM]": 3.6}

----------
target: sigma-1 receptor (Cavia porcellus); construct: guinea pig brains were homogenized; from tissue; host or cells: guinea pig brain membranes; assay: Sigma-1 receptor binding ([3H]-(+)-pentazocine, brain membranes); settings: compound concentration 0.1000 μM; [3H]-(+)-pentazocine 0.5 nM; guinea pig brain membranes; read-out: Percent Inhibition Percent Concentration (μM) 0.1000 SIGMA-1 receptor
Reported inhibition at 0.1 µM values for a set of compounds

{"COMPOUND": "CC1(C)[C@H](CCO)C[C@@H]1CN1CCOCC1", "inhibition at 0.1 µM": "63.1%"}
{"COMPOUND": "CC1(C)[C@H](CCO)C[C@@H]1CN1CCCCC1", "inhibition at 0.1 µM": "44.8%"}
{"COMPOUND": "CC1(C)[C@@H](COCc2ccccc2)C[C@H]1CN1CCN(c2ccccc2)CC1", "inhibition at 0.1 µM": "94.7%"}
{"COMPOUND": "CN(Cc1ccccc1)CC1CC(CCO)C1(C)C (stereo not shown)", "inhibition at 0.1 µM": "92%"}
{"COMPOUND": "CC1(C)[C@@H](CCN2CCc3ccccc3C2)C[C@H]1CN1CCCCC1", "inhibition at 0.1 µM": "87.1%"}
{"COMPOUND": "CC(O)[C@@H]1C[C@H](CCN2CCCCC2)C1(C)C (stereo partly shown)", "inhibition at 0.1 µM": "44.1%"}
{"COMPOUND": "CC1(C)[C@@H](CCn2cncn2)C[C@H]1CN1CCOCC1", "inhibition at 0.1 µM": "28.4%"}
{"COMPOUND": "CC1(C)[C@@H](CCOCc2ccccc2)C[C@H]1CN1CCSCC1", "inhibition at 0.1 µM": "91.8%"}
{"COMPOUND": "CC(O)(c1ccccc1)[C@@H]1C[C@H](CCN2CCOCC2)C1(C)C (stereo partly shown)", "inhibition at 0.1 µM": "95.2%"}
{"COMPOUND": "CC1(C)[C@@H](CCOCc2ccccc2)C[C@H]1CN1CCN(c2ccccc2)CC1", "inhibition at 0.1 µM": "88.3%"}
{"COMPOUND": "CC(O)[C@@H]1C[C@H](CCN2CCOCC2)C1(C)C (stereo partly shown)", "inhibition at 0.1 µM": "44.4%"}
{"COMPOUND": "CC1(C)[C@@H](CCOc2ccccc2)C[C@H]1CN1CCOCC1", "inhibition at 0.1 µM": "95.4%"}
{"COMPOUND": "CC1(C)[C@@H](CCOCc2ccccc2)C[C@H]1CN1CCCC1", "inhibition at 0.1 µM": "89.8%"}
{"COMPOUND": "CC1(C)[C@H](CCOCc2ccccc2)C[C@@H]1CN1CCN(c2ccccc2)CC1", "inhibition at 0.1 µM": "82.2%"}
{"COMPOUND": "CC1(C)[C@H](CCOCc2ccccc2)C[C@@H]1CN1CCOCC1", "inhibition at 0.1 µM": "79.7%"}
{"COMPOUND": "CC1(C)[C@@H](CCO)C[C@H]1CN1CCCCC1", "inhibition at 0.1 µM": "61.5%"}
{"COMPOUND": "CC(O)(c1ccccc1)[C@@H]1C[C@H](CCN2CCCCC2)C1(C)C (stereo partly shown)", "inhibition at 0.1 µM": "97.5%"}
{"COMPOUND": "CC1CCN(C[C@@H]2C[C@H](CCOCc3ccccc3)C2(C)C)CC1", "inhibition at 0.1 µM": "100%"}
{"COMPOUND": "CC1(C)[C@@H](CCn2ccc3c2CCCC3=O)C[C@H]1CN1CCCCC1", "inhibition at 0.1 µM": "73.6%"}

----------
target: sigma-1 receptor (Cavia porcellus, UniProt Q60492); construct: guinea pig brains were homogenized; from tissue; host or cells: guinea pig brain membranes; experiment: Sigma-1 receptor binding ([3H]-(+)-pentazocine, brain membranes); conditions: compound concentration 0.0100 μM; [3H]-(+)-pentazocine 0.5 nM; guinea pig brain membranes; read-out: Percent Inhibition Percent Concentration (μM) 0.0100 SIGMA-1 receptor
Note to self: values exactly at 80% are Criterion met. So inhibition at 0.01 µM at or above 80% is Criterion met, below is Criterion not met.

{"COMPOUND": "CC1(C)[C@@H](CCN2CCC(c3ccccc3)CC2)C[C@H]1CN1CCCCC1 [compound 51]", "CATEGORY": "Criterion not met"}
{"COMPOUND": "CC1(C)[C@@H](COCc2ccccc2)C[C@H]1CN1CCOCC1 [compound 6]", "CATEGORY": "Criterion met"}
{"COMPOUND": "CC1(C)[C@@H](CCN2CCC(Cc3ccccc3)CC2)C[C@H]1CN1CCOCC1 [compound 42]", "CATEGORY": "Criterion not met"}
{"COMPOUND": "CC1(C)[C@@H](CCN2CCCC(c3ccccc3)C2)C[C@H]1CN1CCOCC1 (stereo partly drawn) [compound 40]", "CATEGORY": "Criterion not met"}
{"COMPOUND": "CC1(C)[C@@H](CCN2CCc3ccccc3C2)C[C@H]1CN1CCCCC1 [compound 54]", "CATEGORY": "Criterion not met"}
{"COMPOUND": "CC1(C)[C@@H](CCn2cccn2)C[C@H]1CN1CCCCC1 [compound 49]", "CATEGORY": "Criterion not met"}
{"COMPOUND": "CC1CCN(C[C@@H]2C[C@H](CCOCc3ccccc3)C2(C)C)CC1 [compound 28]", "CATEGORY": "Criterion met"}
{"COMPOUND": "CC1(C)[C@@H](CCn2ccc3c2CCCC3=O)C[C@H]1CN1CCOCC1 [compound 46]", "CATEGORY": "Criterion not met"}
